system.name: SARS‐CoV‐2 Nsp15 (Severe acute respiratory syndrome coronavirus 2)
method: biochemical
study.conditions: hit confirmation, 10 µM, DTT buffer
Kindly supply the reported HC inhibition % +DTT 10 µM values for the records listed here.

Example cases with answers are listed next.
[[record]]
compound = "CN[C@H](CC(C)C)C(=O)N[C@H]1C(=O)N[C@@H](CC(N)=O)C(=O)N[C@H]2C(=O)N[C@H]3C(=O)N[C@H](C(=O)N[C@H](C(=O)O)c4cc(O)cc(O)c4-c4cc3ccc4O)[C@H](O[C@H]3C[C@](C)(N)[C@@H](O)[C@H](C)O3)c3ccc(c(Cl)c3)Oc3cc2cc(c3O[C@@H]2O[C@H](CO)[C@@H](O)[C@H](O)[C@H]2O[C@H]2C[C@](C)(NCc3ccc(-c4ccc(Cl)cc4)cc3)[C@@H](O)[C@H](C)O2)Oc2ccc(cc2Cl)[C@H]1O.O=P(O)(O)O.O=P(O)(O)O [Oritavancin (diphosphate)]"
system_name = "SARS‐CoV‐2 Nsp15 (Severe acute respiratory syndrome coronavirus 2)"
measured_result = "92,52%"

[[record]]
compound = "C/C(=N\\NC(=N)N)c1cc(NC(=O)CCCCCCCCC(=O)Nc2cc(/C(C)=N/NC(=N)N)cc(/C(C)=N/NC(=N)N)c2)cc(/C(C)=N/NC(=N)N)c1"
system_name = "SARS‐CoV‐2 Nsp15 (Severe acute respiratory syndrome coronavirus 2)"
measured_result = "99,81%"

[[record]]
compound = "O=C1C(Cl)=C(NCCN2CCOCC2)C(=O)c2ncccc21"
system_name = "SARS‐CoV‐2 Nsp15 (Severe acute respiratory syndrome coronavirus 2)"
measured_result = "82,57%"

[[record]]
compound = "COc1cccc(C=NCCN=Cc2cccc(OC)c2[O-])c1[O-].[Cl-].[Mn+3]"
system_name = "SARS‐CoV‐2 Nsp15 (Severe acute respiratory syndrome coronavirus 2)"
measured_result = "56,68%"

[[record]]
compound = "CC[N+](C)(CC)CCC[n+]1c(-c2ccccc2)c2cc(N)ccc2c2ccc(N)cc21.[I-].[I-] [Propidium‐iodide]"
system_name = "SARS‐CoV‐2 Nsp15 (Severe acute respiratory syndrome coronavirus 2)"
measured_result = "85,94%"


# lookup: Cc1[nH]c2ccc(F)cc2c1-c1nc2c3cccnc3c3ncccc3c2[nH]1 on SARS‐CoV‐2 Nsp15 (Severe acute respiratory syndrome coronavirus 2), HC inhibition % +DTT 10 µM = 78,02%
